Data provenance: PubChem BioAssay

- assayed system: Focal adhesion kinase 1 (Homo sapiens) (UniProt Q05397)
- Sequence (Q05397 whole entry, looked up): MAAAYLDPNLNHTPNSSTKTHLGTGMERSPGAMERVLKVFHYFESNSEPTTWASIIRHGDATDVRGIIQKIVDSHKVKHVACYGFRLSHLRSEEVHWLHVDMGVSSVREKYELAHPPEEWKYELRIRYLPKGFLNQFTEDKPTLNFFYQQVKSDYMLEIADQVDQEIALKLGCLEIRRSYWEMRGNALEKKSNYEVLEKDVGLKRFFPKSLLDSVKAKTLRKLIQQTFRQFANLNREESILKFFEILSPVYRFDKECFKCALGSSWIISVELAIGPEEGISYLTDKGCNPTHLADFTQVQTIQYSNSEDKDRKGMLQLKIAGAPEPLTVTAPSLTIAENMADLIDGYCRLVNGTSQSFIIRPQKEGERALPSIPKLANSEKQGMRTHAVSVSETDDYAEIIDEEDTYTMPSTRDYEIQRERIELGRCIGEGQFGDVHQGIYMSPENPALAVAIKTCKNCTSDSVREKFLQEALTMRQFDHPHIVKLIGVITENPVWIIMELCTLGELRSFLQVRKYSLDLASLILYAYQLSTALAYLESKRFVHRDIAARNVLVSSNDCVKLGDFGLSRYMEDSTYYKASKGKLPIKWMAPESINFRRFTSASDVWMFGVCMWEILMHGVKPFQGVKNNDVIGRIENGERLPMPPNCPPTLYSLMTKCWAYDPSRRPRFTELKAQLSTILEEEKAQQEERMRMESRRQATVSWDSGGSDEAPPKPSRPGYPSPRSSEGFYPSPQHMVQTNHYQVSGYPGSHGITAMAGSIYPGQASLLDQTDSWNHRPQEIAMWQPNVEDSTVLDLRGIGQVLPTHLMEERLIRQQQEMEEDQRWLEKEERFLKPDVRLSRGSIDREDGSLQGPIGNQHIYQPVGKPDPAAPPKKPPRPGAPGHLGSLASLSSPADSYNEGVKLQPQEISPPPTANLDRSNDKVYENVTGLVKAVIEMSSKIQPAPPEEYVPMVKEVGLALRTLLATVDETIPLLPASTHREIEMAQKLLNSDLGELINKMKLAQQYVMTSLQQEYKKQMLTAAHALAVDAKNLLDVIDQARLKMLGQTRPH
- assay explanation: small-molecule microarray binders of FAK, primary screen, biochemical, 635/667 nm fluorescence, BSA, DTT (AID 1130);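 further: composite of spot emission at 667 nm and signal to noise over triplicate slides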
- test conditions: PTK2 binding, 635 nm fluorescence, higher = more signal
metric: composite z-score
Number only, please.

For the compound shown here, CC(=O)OC[C@H]1O[C@H](CC=NOCC[C@@H]2C=C[C@H](OC(C)=O)[C@@H](COC(C)=O)O2)C=C[C@@H]1OC(C)=O , give the reported composite z-score. -0.216

What value of composite z-score has been recorded for this entry: CON=C(C)CCN1CCCc2nc(C)c(C)cc21 -0.0211

What value of composite z-score has been reported for the following compound? COC(=O)CC=C1c2ccccc2[C@H](OC)[C@H]1C -0.102

Give its composite z-score value. Item: C#CCCCON=C1C[C@@H](O)[C@@H](O)[C@@H]2[C@@H]3C(=O)N(CC)C(=O)[C@@H]3CC[C@H]12 -0.442

For the compound shown here, COC(=O)CC=C[C@@H](C)[C@@H](C=NOC[C@@H](O)[C@H]1O[C@@H]2OC(C)(C)O[C@@H]2[C@H]1O)OC , give the reported composite z-score. 0.167

Find the recorded composite z-score belonging to CCc1cc2c(nc1CC)CCN(CCC(C)=NOC(C)CN1CCCCc3nc(C)c(C)cc31)C2 (stereo not drawn) and report it. -0.048

Look at this compound and give its reported composite z-score. CC(=O)OC[C@H]1O[C@H](CC=NOC(C)CN2CCCCc3nc(C)c(C)cc32)C=C[C@@H]1OC(C)=O (stereo partly drawn) 0.0336

Requested field: composite z-score. Item: CC(=O)OC[C@H]1O[C@H](CC=NOC[C@@H](O)COCc2ccco2)C=C[C@@H]1OC(C)=O 0.0925

* * *

- assayed system: Carbonic anhydrase 2 (Homo sapiens)
- assay explanation: CAII small-molecule binders, profiling panel, biochemical, small-molecule microarray, Alexa647-labelled CAII (AID 1122)
- test conditions: CAII-A647 binding fluorescence, higher = more signal
For each of the compounds below, state its composite z-score.
# output: bare number, no unit

Consider the compound C#CCCCON=C1C[C@@H](O)[C@@H](O)[C@@H]2[C@@H]3C(=O)N(C[C@@H]4CCCO4)C(=O)[C@@H]3CC[C@@H]12 and give its measured composite z-score. 0.406

I'd like to know its composite z-score. The compound in question is CCOC(=O)CCN1C(=O)[C@H]2[C@H]3[C@H](O)[C@H](O)CC(=NNC(=O)OCC)[C@H]3CC[C@H]2C1=O 0.505

I'd like to know its composite z-score. The compound in question is O=C1[C@H]2[C@H]3[C@H](O)[C@H](O)CC(=NOC[C@@H](O)COCc4ccco4)[C@@H]3CC[C@H]2C(=O)N1C1CCCCC1 0.057

Sample O=C1[C@H]2[C@H]3[C@H](O)[C@H](O)CC(=NOC[C@@H](O)COCc4ccco4)[C@@H]3CC[C@H]2C(=O)N1Cc1ccc2c(c1)OCO2 — what was its composite z-score? -0.307

* * *

- assayed system: Carbonic anhydrase 2 (Homo sapiens) (UniProt P00918)
- assay explanation: CAII small-molecule binders, profiling panel, biochemical, small-molecule microarray, Alexa647-labelled CAII (AID 1122)
- test conditions: CAII-A647 binding fluorescence, higher = more signal
metric: composite z-score
The response must contain the number and no unit.

Query: composite z-score; subject: COc1ccc(OC[C@@H](CO)OC)cc1 -0.148

Give the measured composite z-score of COC(=O)[C@H](C)NC(=O)CCC1CC(OC(=O)NCc2ccc3c(c2)OCO3)CC2(CCCC(COC(=O)NCCCN3CCCC3=O)O2)O1 (some centres not stated) . 0.167

Dear colleague, I am looking for the recorded composite z-score of the following compound: CC(CCC(=O)OC[C@H]1O[C@H](C#Cc2ccccc2)C=C[C@@H]1Oc1ccc(C)cc1)=NO[C@@H](C)c1cc(-c2c(C)cc(C)cc2C)no1 -0.0955

Field request: composite z-score | item: COC(=O)[C@H](C)NC(=O)CCC1CC(OC(=O)NCc2ccc3c(c2)OCO3)CC2(CCCC(COC(=O)NCCc3ccc(Cl)cc3)O2)O1 (some centres not stated) 0.0233

I'd like to know its composite z-score. The compound in question is CCN1C(C)=C(C(=O)OC)[C@@H](c2ccccc2)N2C(=O)[C@](O)(C(=O)OC)CC(C(C)=O)=C12 -0.174

Look up composite z-score for this compound: C=C(C)C(=O)OC[C@H]1CN2[C@@H](CC[C@@H](C)[C@@H]2c2ccc(Br)cc2)C(=O)O1 0.079

What does the data say about its composite z-score? Entry: CC(=O)OC[C@H]1O[C@@H](ON=C(C)CCC(=O)OC[C@H]2O[C@H](C#Cc3ccccc3)C=C[C@@H]2Oc2ccc(C)cc2)[C@H](OC(C)=O)[C@@H](OC(C)=O)[C@@H]1OC(C)=O 0.273

* * *

- Tested on: wheat germ agglutinin (Triticum aestivum), Alexa647-labelled
- assay explanation: wheat germ agglutinin binders on compound microarrays, profiling panel, artefact control for SMM control-protein annotation, biochemical, small-molecule microarray, 635/667 nm fluorescence (AID 1140);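 further: score merges 667 nm feature emission with signal to noise over triplicate slides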
- test conditions: WGA-A647 binding, 635 nm fluorescence, higher = more signal
metric: composite z-score
In your answer, state the number alone without any accompanying words.

Find the recorded composite z-score belonging to CCc1cc2c(nc1CC)CCN(CCC(C)=NO[C@@H]1O[C@H](COC(C)=O)[C@@H](OC(C)=O)[C@H](OC(C)=O)[C@H]1OC(C)=O)C2 and report it. 0.167

Any idea what composite z-score was measured for CC(=O)OC[C@H]1O[C@H](C#CCCc2ccccc2)C=C[C@@H]1OC(C)=O ? -0.225

Any idea what composite z-score was measured for CCOC(=O)[C@H](Cc1ccccc1)NC(=O)CCC1CC(OC(=O)NCc2cccc3ccccc23)CC2(CCCC(COC(=O)NCCc3ccccc3OC)O2)O1 (stereo partly drawn) ? 0.404

Looking for the measured composite z-score of COC(=O)[C@@H]1CC[C@H](C)[C@@H](c2ccc(C)cc2)N1C(=O)c1ccc(C=NO[C@@H](C)c2cc(-c3c(C)cc(C)cc3C)no2)cc1 , can you help? 0.0859

Request the reported composite z-score associated with CC(=O)OC[C@H]1O[C@H](CC=NOC[C@@H](O)COCc2ccco2)C=C[C@@H]1OC(C)=O -0.327

I would be grateful if you could share the reported composite z-score for COc1ccc(O[C@H]2C=C[C@@H](c3ccccc3)O[C@@H]2CO)cc1 . -0.126

Please look up its composite z-score: CCOC(=O)CCN1C(=O)[C@H]2[C@H]3[C@H](O)[C@H](O)CC(=NNC(=O)OCC)[C@H]3CC[C@H]2C1=O -0.656

Recorded composite z-score for C[C@H]1CC[C@@H](C(=O)O)N[C@@H]1c1ccc(C#Cc2ccccc2)cc1 , please? 1.11

* * *

I'd be grateful if you could share measured z-score for these entries.
- assay explanation: A549 lung cancer cell viability effects, profiling panel, resazurin fluorescence, 24 h, PK04 Diversity Set (AID 1171); further: test concentration not given here
- test conditions: higher = more signal, called active from +8 up or from −8 down
Number, no unit, nothing else.

Give the measured z-score of CCOC(=O)[C@H](Cc1ccccc1)NC(=O)CCC1CC(OC(=O)NCc2ccc3c(c2)OCO3)CC2(CCCC(COC(=O)NCCOc3ccccc3)O2)O1 (some centres undefined) . 0.198

# query: z-score of entry CC(CCN1CCCc2nc(C)c(C)cc21)=NO[C@H](C)c1cn([C@H](CO)Cc2ccccc2)nn1 -0.254

Which z-score is reported for this molecule? CCOC(=O)[C@H](Cc1ccccc1)NC(=O)CCC1CC(OC(=O)NCc2cccc3ccccc23)CC2(CCCC(COC(=O)NCCc3ccccc3OC)O2)O1 (some centres undefined) 0.737

Which z-score is listed for CC(C)=NO[C@@H](C)c1cn([C@H](CO)Cc2ccccc2)nn1 ? -1.35

* * *

- assay explanation: HepG2 cell viability effects, profiling panel, calcein-AM fluorescence, 48 h, basal (AID 1164); further: test concentration not given here
- test conditions: higher = more signal
metric: z-score
Lab note: record the figure alone, no unit after it.

z-score for CC(CCN1CCCc2nc(C)c(C)cc21)=NOC[C@@H](O)COCc1ccco1 ? -0.496

Quick check: z-score of O=C(NN=C1C[C@@H](O)[C@@H](O)[C@@H]2[C@@H]3C(=O)N(Cc4ccc5c(c4)OCO5)C(=O)[C@@H]3CC[C@@H]12)OCc1ccccc1 ? -0.423

What value of z-score has been recorded for this entry: O=C(NN=C1C[C@@H](O)[C@@H](O)[C@@H]2[C@@H]3C(=O)N(Cc4ccccc4)C(=O)[C@@H]3CC[C@H]12)OCc1ccccc1 -0.604

State the recorded z-score for this entry: C=CC[C@@H]1C=C[C@H](ON=CC[C@@H]2C=C[C@H](OC(C)=O)[C@@H](COC(C)=O)O2)[C@@H](CO)O1 0.347

z-score for CC#CCOCCC=C1c2ccccc2[C@@H](OC)[C@@H]1C ? 0.788

Recorded z-score for O=C1[C@H]2[C@H]3[C@H](O)[C@H](O)CC(=NO[C@@H]4O[C@H](CO)[C@@H](O)[C@H](O)[C@H]4O)[C@H]3CC[C@H]2C(=O)N1C[C@@H]1CCCO1 , please? 0.184

Report z-score for C[C@@H]1CC[C@H]2C(=O)O[C@@H](COc3ccc(C(C)(C)C)cc3)CN2[C@H]1c1ccc(Br)cc1 please. 0.0944

// returns reported z-score for input COC(=O)CC=C1c2ccccc2[C@H](OC)[C@H]1C -0.379

// lookup z-score for CC(CCN1CCCc2nc(C)c(C)cc21)=NOC[C@@H](C)[C@H](OCc1ccccc1)C(C)C 1.18

Look up z-score for this compound: CC(C)CON=C1C[C@@H](O)[C@@H](O)[C@@H]2[C@@H]3C(=O)N(Cc4ccccc4)C(=O)[C@@H]3CC[C@H]12 -0.155

Returns the measured z-score for the input compound. Input: Cc1ccc(S(=O)(=O)N[C@@H]2COC(=O)CC=C[C@@H](C)[C@H](NS(=O)(=O)c3ccc(C)cc3)COC(=O)[C@H](C)NC(=O)CC=C[C@H]2C)cc1 0.428

So what's the measured z-score for this one? COC(=O)C1=C(C)N(Cc2ccccc2)C2=C3C(=O)OCC[C@@H]3[C@@](O)(C(=O)OC)C(=O)N2[C@@H]1c1ccccc1 0.24

Fill blank: measured z-score of the compound COC(=O)CC=C[C@@H](C)[C@@H](C=NOC[C@@H](O)COCc1ccco1)NS(=O)(=O)c1ccc(C)cc1 is ____. 0.3

Item under review: O=C1C2=CC[C@H]3C(=O)N(C4CCCCC4)C(=O)[C@H]3[C@H]2[C@H](O)[C@@H]2O[C@H]12 . Reported z-score? -4.38

Any idea what z-score was measured for CCOC(=O)[C@H](Cc1ccccc1)NC(=O)CCC1CC(OC(=O)NCCc2ccc(F)cc2)CC2(CCCC(COC(=O)NCCOc3ccccc3)O2)O1 (stereo not given in full) ? 0.141

Would you mind telling me what z-score value was observed for C[C@@H](c1ccccc1)N1C(=O)[C@H]2[C@H]3[C@H](O)[C@H](O)CC(=NOC[C@@H](O)COCc4ccco4)[C@H]3CC[C@H]2C1=O ? -0.187

Which z-score value belongs to CC(=O)OC[C@H]1O[C@H](CC=NOCC[C@@H]2C=C[C@H](OC(C)=O)[C@@H](COC(C)=O)O2)C=C[C@@H]1OC(C)=O ? -0.441

# lookup: z-score of COC(=O)[C@H](C)NC(=O)CCC1CC(OC(=O)NCc2cccc3ccccc23)CC2(CCCC(COC(=O)NCCOc3ccccc3)O2)O1 (stereo not given in full) -1.24

So what does the record say about z-score for CCOC(=O)NN=C1C[C@@H](O)[C@@H](O)[C@@H]2[C@@H]3C(=O)N(C[C@@H]4CCCO4)C(=O)[C@@H]3CC[C@H]12 ? -1.17

Consider the compound shown here: CCOC(=O)[C@H](Cc1ccccc1)NC(=O)CCC1CC(OC(=O)NCCc2ccc(F)cc2)CC2(CCCC(COC(=O)NCCC(C)C)O2)O1 (stereo not given in full) What is its recorded z-score? 0.368

Quick one: z-score for COCOc1ccc(Br)cc1C(=O)C=Cc1ccc2c(c1)OCO2 ? -2.2

Look at this compound and give its reported z-score. CC(C)CON=C1[C@H]2CCn3c(=O)n(C)c(=O)n3[C@H]2[C@H](O)[C@@H]2O[C@H]12 0.361

Value lookup for z-score; key = COc1ccc(O[C@H]2C=C[C@@H](c3ccccc3)O[C@@H]2COC(=O)CCC(C)=NOC[C@@H](O)COCc2ccco2)cc1 0.599

Given the entry C[C@H]1CC[C@@H](C(=O)O)N[C@@H]1c1ccc(C#Cc2ccccc2)cc1 , report its measured z-score. -2.28

Using the record for CC(C)=CCCC(C)=CCON=C1C[C@@H](O)[C@@H](O)[C@@H]2[C@@H]3C(=O)N(C4CCCCC4)C(=O)[C@@H]3CC[C@H]12 , report its z-score. -0.0977

Item CC(CCN1CCc2nc(-c3ccccc3)c(-c3ccccc3)cc2C1)=NOC(C)CN1CCCc2nc(C)c(C)cc21 (stereo not given) has what recorded z-score? 0.69

Recorded z-score of COc1ccc(COC(=O)NN=C2C[C@@H](O)[C@@H](O)[C@@H]3[C@@H]4C(=O)N(C[C@@H]5CCCO5)C(=O)[C@@H]4CC[C@@H]23)cc1 , please. 0.245

Which measured z-score value corresponds to C[C@]12CCC3c4ccc(OCC5CO5)cc4CCC3C1CC[C@@H]2O (stereo not given in full) ? 0.266

Need z-score of CC(=O)OC[C@H]1O[C@H](CC=NOC[C@@H](O)[C@H]2O[C@@H]3OC(C)(C)O[C@@H]3[C@H]2O)C=C[C@@H]1OC(C)=O , thanks. -0.188

For the compound CCOC(=O)[C@H](CC(C)C)NC(=O)CCC1CC(OC(=O)NCc2ccc3c(c2)OCO3)CC2(CCCC(COC(=O)NCc3ccccc3)O2)O1 (stereo not given in full) , what z-score is on record? -1.38
